# Tested on: Falciformispora senegalensis CBS197.79
# procedure-details: growth relative to untreated control; higher = less inhibition, active = 20 or less
# conditions: 100 µM
Parameter call: string, one of active, inactive

Some solved cases for reference:
{"compound": "O=C1C=C(N(Cc2ccc(Cl)nc2)CC(F)F)CO1", "class-assignment": "inactive"}
{"compound": "Cc1nc(N(C)C)nc(OC(=O)N(C)C)c1C", "class-assignment": "inactive"}
{"compound": "CCC(CC)c1cccc(OC(=O)NC)c1.CCCC(C)c1cccc(OC(=O)NC)c1", "class-assignment": "inactive"}
{"compound": "CC[C@@H](C(=O)[C@@H](C)[C@@H](O)[C@H](C)[C@@H]1O[C@@H]([C@@H](CC)C(=O)O)CC[C@@H]1C)[C@H]1O[C@]2(C=C[C@@H](O)[C@]3(CC[C@@](C)([C@H]4CC[C@](O)(CC)[C@H](C)O4)O3)O2)[C@H](C)C[C@@H]1C", "class-assignment": "inactive"}
{"compound": "CN(C)[C@@H]1C(=O)C(C(N)=O)=C(O)[C@@]2(O)C(O)=C3C(=O)c4c(O)cccc4[C@@](C)(O)[C@H]3C[C@@H]12", "class-assignment": "inactive"}

Ask | What is the recorded call for this compound in the test? "O=C(NC(=O)c1c(F)cccc1F)Nc1ccc(Cl)cc1"
Reply | inactive

Ask | Any idea what this test logged for "COc1ccc(CCN2CCC(Nc3nc4ccccc4n3Cc3ccc(F)cc3)CC2)cc1" ?
Reply | active

Ask | // return assay outcome for "NCCc1cn(S(=O)(=O)c2c(Cl)nc3sccn23)c2ccccc12"
Reply | active

Ask | Short answer needed: outcome of this test for CC1(Nc2ncc3nc(Nc4cc(Cl)cc(C(F)(F)F)c4)n(C4CCNC4)c3n2)CC1 (stereo not given) ?
Reply | inactive

Ask | Test call for this compound, please: "CCc1nn(C)c(C(=O)NCc2ccc(Oc3ccc(C)cc3)cc2)c1Cl"
Reply | inactive

###

The reader will find reported growth values listed item by item below.
# System: Falciformispora senegalensis CBS197.79
# procedure-details: growth relative to untreated control; higher = less inhibition, active = 20 or less
# conditions: 100 µM
Quick reminder: number only, in %, skip the unit.

Example entries and their recorded answers appear below.
{"molecule": "Cc1cc(C2=NOC(c3cc(Cl)cc(Cl)c3)(C(F)(F)F)C2)ccc1C(=O)NCC(=O)NCC(F)(F)F (stereo not given)", "tested-target": "Falciformispora senegalensis CBS197.79", "growth (%)": 103}
{"molecule": "COc1cc(/C=N/c2c(SC(F)(F)F)c(C#N)nn2-c2c(Cl)cc(C(F)(F)F)cc2Cl)ccc1O", "tested-target": "Falciformispora senegalensis CBS197.79", "growth (%)": 90.9}
{"molecule": "CCOc1ccc(C(C)(C)COCc2cccc(Oc3ccccc3)c2)cc1", "tested-target": "Falciformispora senegalensis CBS197.79", "growth (%)": 39.3}

# molecule CC1(C)C(C=C(Cl)Cl)C1C(=O)OC(C#N)c1ccc(F)c(Oc2ccccc2)c1 (stereo not given) ; its growth = 73.5

Record summary for CCOC(=O)CC(SP(=S)(OC)OC)C(=O)OCC (stereo not given) : reported growth = 95.2

The value of growth measured for the molecule "CN(c1cc(NC(=O)c2ccc(F)cc2)ccn1)C1CCN(Cc2cccc(F)c2)CC1" turned out to be 30.2

Form: molecule = CC(c1ccc(C(F)(F)F)nc1)S(C)(=O)=NC#N (stereo not given) ; growth = 90.7

The recorded growth for "CC(C)(C#N)NC(=O)c1cc(Cl)cc(Cl)c1NC(=O)c1cc(Cl)nn1-c1ncccc1Cl" is 94.6

molecule "CN(C)CCn1c(Nc2cc(Cl)cc(C(F)(F)F)c2)nc2cnc(NC3CCC3)cc21" , growth observed: 104

# growth (molecule: Clc1cc(Cl)cc(Nc2nc3cnc(NC4CCCC4)cc3n2C2CCNC2)c1 (stereo not given) ) is 77.4

###

# Test system: Madurella mycetomatis MM55
# procedure-details: growth relative to untreated control; higher = less inhibition, active = 20 or less
# conditions: 100 µM
readout-label: growth (%)
Hi! Could you send only the number? It should be in %, unit omitted.

Example entries and their recorded answers appear below.
{"molecule": "N#CCNC(=O)c1cnccc1C(F)(F)F", "readout-unit": "%", "numeric-readout": 142}
{"molecule": "CN(C)[C@@H]1C(=O)C(C(N)=O)=C(O)[C@@]2(O)C(O)=C3C(=O)c4c(O)cccc4[C@@](C)(O)[C@H]3C[C@@H]12", "readout-unit": "%", "numeric-readout": 82.5}
{"molecule": "CCS(=O)c1c(C#N)nn(-c2c(Cl)cc(C(F)(F)F)cc2Cl)c1N (stereo unspecified)", "readout-unit": "%", "numeric-readout": 92.4}

Form: item "COc1cc(/C=N/c2c(SC(F)(F)F)c(C#N)nn2-c2c(Cl)cc(C(F)(F)F)cc2Cl)ccc1O" ; test system Madurella mycetomatis MM55; growth: 53.9

# lookup: Cc1cc(C2=NOC(c3cc(Cl)cc(Cl)c3)(C(F)(F)F)C2)ccc1C(=O)NCC(=O)NCC(F)(F)F (stereo unspecified) on Madurella mycetomatis MM55, growth = 9.07

Test item CC(C)Nc1cc2c(cn1)nc(Nc1cc(Cl)cc(C(F)(F)F)c1)n2C1CCNC1 (stereo unspecified) ; Madurella mycetomatis MM55; reported growth was 6.36

// returns growth for "COc1ccc(CCN2CCC(Nc3nc4ccccc4n3Cc3ccc(F)cc3)CC2)cc1" with Madurella mycetomatis MM55; value = 4.43

Response field growth (Madurella mycetomatis MM55) for item "CC1(C)CNC(=NN=C(C=Cc2ccc(C(F)(F)F)cc2)C=Cc2ccc(C(F)(F)F)cc2)NC1" : 106

growth on Madurella mycetomatis MM55 for "CNC(=O)c1cc(C#N)cc(C)c1NC(=O)c1cc(Br)nn1-c1ncccc1Cl" is 55.9

// growth (Madurella mycetomatis MM55) for CC1(C)C(/C=C(\Cl)c2ccc(Cl)cc2)C1C(=O)OC(C#N)c1ccc(F)c(Oc2ccccc2)c1 (stereo unspecified) = 119

Measured growth for this entry "CC[C@@H]1CCC[C@H](O[C@H]2CC[C@H](N(C)C)[C@@H](C)O2)[C@@H](C)C(=O)C2=C[C@@H]3[C@@H](C=C(C)[C@@H]4C[C@@H](O[C@@H]5O[C@@H](C)[C@H](OC)[C@@H](OC)[C@H]5OC)C[C@@H]34)[C@@H]2CC(=O)O1.CC[C@@H]1CCC[C@H](O[C@H]2CC[C@H](N(C)C)[C@@H](C)O2)[C@@H](C)C(=O)C2=C[C@@H]3[C@@H](C=C[C@@H]4C[C@@H](O[C@@H]5O[C@@H](C)[C@H](OC)[C@@H](OC)[C@H]5OC)C[C@@H]34)[C@@H]2CC(=O)O1" on Madurella mycetomatis MM55: 91.5

###

Catalogue of growth readings, one per entry.
# Test system: Madurella mycetomatis MM55
# procedure-details: growth relative to untreated control; higher = less inhibition, active = 20 or less
# conditions: 25 µM
Numbers only; they are read as %.

{"molecule": "N#CCNC(=O)c1cnccc1C(F)(F)F", "readout-label": "growth", "readout-unit": "%", "numeric-readout": 109}
{"molecule": "CNCCn1c(Nc2cc(Cl)cc(C(F)(F)F)c2)nc2cnc(NC3CC(F)(F)C3)cc21", "readout-label": "growth", "readout-unit": "%", "numeric-readout": 22.2}
{"molecule": "O=C(NC(=O)c1c(F)cccc1F)Nc1ccc(Cl)cc1", "readout-label": "growth", "readout-unit": "%", "numeric-readout": 99.6}

Fill in: Madurella mycetomatis MM55 growth for CN/C(=N/CC1CCOC1)N[N+](=O)[O-] (stereo unspecified) = 90.9

Considering "CCOP(=S)(OCC)Oc1cc(C)nc(C(C)C)n1" , its growth with Madurella mycetomatis MM55 was recorded as 108

Here "CCOc1ccc(C(C)(C)COCc2cccc(Oc3ccccc3)c2)cc1" was tested on Madurella mycetomatis MM55, and its growth came to 97

###

# Test system: Falciformispora senegalensis CBS197.79
# procedure-details: growth relative to untreated control; higher = less inhibition, active = 20 or less
# conditions: 25 µM
Cut-off 80% on growth, inclusive. At or above means label 1; below means label 0.

Use the examples below as a reference point.
{"molecule": "CN(C)[C@@H]1C(=O)C(C(N)=O)=C(O)[C@@]2(O)C(O)=C3C(=O)c4c(O)cccc4[C@@](C)(O)[C@H]3C[C@@H]12", "class-assignment": "label 1"}
{"molecule": "COC(C)(C)CCCC(C)C/C=C/C(C)=C/C(=O)OC(C)C (configuration not stated)", "class-assignment": "label 1"}
{"molecule": "COc1cc(/C=N/c2c(SC(F)(F)F)c(C#N)nn2-c2c(Cl)cc(C(F)(F)F)cc2Cl)ccc1O", "class-assignment": "label 1"}
{"molecule": "ClC1=C(Cl)[C@@]2(Cl)[C@H]3C[C@@H](Cl)[C@H](Cl)[C@H]3[C@@]1(Cl)C2(Cl)Cl", "class-assignment": "label 0"}
{"molecule": "CC(C)(C#N)NC(=O)c1cc(Cl)cc(Cl)c1NC(=O)c1cc(Cl)nn1-c1ncccc1Cl", "class-assignment": "label 1"}
{"molecule": "CNCCn1c(Nc2cc(Cl)cc(C(F)(F)F)c2)nc2cnc(NC3CC(F)(F)C3)cc21", "class-assignment": "label 0"}

Now take the following molecule into account.
Ask | Given the entry "Cc1c(COC(=O)[C@@H]2[C@H](C=C(Cl)C(F)(F)F)C2(C)C)cccc1-c1ccccc1" , answer whether its growth meets or surpasses 80%.
Reply | label 1
